Measured on: S. aureus GyrB ATPase (Staphylococcus aureus)
Experimental details: S. aureus GyrB ATPase inhibition (ammonium molybdate/malachite green phosphate detection)
Format: biochemical
Condition parameters: 1 μM compound; S. aureus GyrB ATPase; read-out: Percent Inhibition (1 μM)
Source text: S. aureus GyrB ATPase Inhibition Activity: Compounds may be tested for inhibition of S. aureus GyrB ATPase activity using an ammonium molybdate/malachite green-based phosphate detection assay (Lanzetta, P. A., L. J. Alvarez, P. S. Reinach, and O. A. Candia, 1979, 100: 95-97). […] An IC50 measurement of compound potency for each compound can be determined from reactions performed in the presence of 10 different compound concentrations.
Reported metric: inhibition at 1 µM

// solved cases for inhibition at 1 µM follow
Short answer please: inhibition at 1 µM, S. aureus GyrB ATPase (Staphylococcus aureus), entry `CCNC(=O)Nc1cc(-c2nc(C(F)(F)F)cs2)c(-c2cc3c(=O)c(C(=O)O)cn(C[C@H]4CCCN4CC)c3cn2)cn1`
102%

Param item: `CCNC(=O)Nc1cc(-c2nc(C(F)(F)F)cs2)c(-c2cc3c(=O)c(C(=O)O)cn(Cc4ccncc4)c3cn2)cn1`
105%

// same read-out, input: `CCNC(=O)Nc1cc(-c2nc(C(F)(F)F)cs2)c(-c2cnc3c(c2)c(=O)c(C(=O)O)cn3CCN(C)C)cn1`
104%

Also check `CCNC(=O)Nc1cc(-c2nc(C(F)(F)F)cs2)c(-c2cnc3c(c2)c(=O)c(C(=O)O)cn3[C@H](CO)C(C)(C)C)cn1`
104%

Would you be so kind as to report inhibition at 1 µM for each listed record?
1. CCNC(=O)Nc1cc(-c2nc(C(F)(F)F)cs2)c(-c2cc3c(=O)c(C(=O)O)cn([C@H](CO)C(C)(C)C)c3nc2N2CCN(C)CC2)cn1
2. CCNC(=O)Nc1cc(-c2nc(C(F)(F)F)cs2)c(-c2cnc3c(c2)c(=O)c(C(=O)O)cn3[C@H](CO)CC(C)C)cn1
3. CCNC(=O)Nc1cc(-c2nc(C(F)(F)F)cs2)c(-c2cc3c(=O)c(C(=O)O)cn(CCN(C)C)c3cn2)cn1
4. CCNC(=O)Nc1cc(-c2nc(C(F)(F)F)cs2)c(-c2cc3c(=O)c(C(=O)O)cn(C[C@@H]4CCCN4CC)c3nc2NCCN(C)C)cn1
5. CCNC(=O)Nc1cc(-c2nc(C(F)(F)F)cs2)c(-c2cc3c(=O)c(C(=O)O)cn(CCC(C)(C)C)c3cn2)cn1

108%
104%
98%
100%
103%

Form: Entry = `CCNC(=O)Nc1cc(-c2nc(-c3cnn(C)c3)cs2)c(-c2cc3c(=O)c(C(=O)O)cn(Cc4cn(C)cn4)c3cn2)cn1` | System = S. aureus GyrB ATPase (Staphylococcus aureus) | inhibition at 1 µM = ____
109%

----------
Measured on: S. aureus GyrB ATPase (Staphylococcus aureus, UniProt P0A0K8)
Sequence (P0AES4 whole entry): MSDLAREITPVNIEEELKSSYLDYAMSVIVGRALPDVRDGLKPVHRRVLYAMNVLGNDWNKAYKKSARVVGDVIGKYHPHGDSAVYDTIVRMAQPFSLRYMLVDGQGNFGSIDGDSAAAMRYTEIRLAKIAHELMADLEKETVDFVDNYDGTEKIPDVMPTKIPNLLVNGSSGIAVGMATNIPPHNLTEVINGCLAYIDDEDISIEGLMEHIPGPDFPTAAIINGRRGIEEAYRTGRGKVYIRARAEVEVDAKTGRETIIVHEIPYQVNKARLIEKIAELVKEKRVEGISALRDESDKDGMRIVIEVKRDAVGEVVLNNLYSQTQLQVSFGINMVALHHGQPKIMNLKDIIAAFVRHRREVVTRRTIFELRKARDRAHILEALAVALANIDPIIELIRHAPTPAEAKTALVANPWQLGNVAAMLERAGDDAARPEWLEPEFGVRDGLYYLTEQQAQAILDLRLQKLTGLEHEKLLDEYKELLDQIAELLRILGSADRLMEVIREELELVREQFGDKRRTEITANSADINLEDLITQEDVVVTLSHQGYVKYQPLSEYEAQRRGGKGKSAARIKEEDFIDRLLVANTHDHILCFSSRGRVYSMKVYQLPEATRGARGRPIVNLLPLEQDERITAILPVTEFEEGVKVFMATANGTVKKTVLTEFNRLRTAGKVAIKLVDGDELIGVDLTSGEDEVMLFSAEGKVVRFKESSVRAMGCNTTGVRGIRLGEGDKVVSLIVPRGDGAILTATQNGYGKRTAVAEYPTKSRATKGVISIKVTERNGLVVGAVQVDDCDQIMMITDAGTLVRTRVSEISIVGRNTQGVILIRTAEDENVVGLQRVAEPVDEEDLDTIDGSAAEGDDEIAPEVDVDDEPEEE
Sequence (P0A0K8 whole entry): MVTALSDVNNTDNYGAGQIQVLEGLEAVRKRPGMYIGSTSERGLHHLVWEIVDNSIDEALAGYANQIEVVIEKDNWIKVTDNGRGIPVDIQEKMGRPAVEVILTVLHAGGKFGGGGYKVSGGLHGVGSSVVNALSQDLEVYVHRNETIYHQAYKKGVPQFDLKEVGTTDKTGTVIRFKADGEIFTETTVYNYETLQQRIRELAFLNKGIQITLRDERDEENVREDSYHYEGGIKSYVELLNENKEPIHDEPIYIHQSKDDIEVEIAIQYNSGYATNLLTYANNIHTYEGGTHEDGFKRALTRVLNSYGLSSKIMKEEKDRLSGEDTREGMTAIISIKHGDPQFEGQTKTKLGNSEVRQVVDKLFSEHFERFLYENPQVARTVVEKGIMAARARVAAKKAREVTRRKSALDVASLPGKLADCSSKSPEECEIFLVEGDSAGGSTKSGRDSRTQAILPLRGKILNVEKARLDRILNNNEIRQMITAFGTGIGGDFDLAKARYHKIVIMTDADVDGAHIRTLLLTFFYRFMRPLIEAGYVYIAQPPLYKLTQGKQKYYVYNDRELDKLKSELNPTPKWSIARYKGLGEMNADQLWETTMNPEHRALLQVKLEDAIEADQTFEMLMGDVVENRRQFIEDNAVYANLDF
Experimental details: S. aureus GyrB ATPase inhibition (ammonium molybdate/malachite green phosphate detection)
Format: biochemical
Condition parameters: 1 μM compound; S. aureus GyrB ATPase; read-out: Percent Inhibition (1 μM)
Reported metric: inhibition at 1 µM (%)
One number for each entry, in %.

Record excerpt, results attached:
Record request: inhibition at 1 µM value, item CCNC(=O)Nc1cc(-c2nc(C(F)(F)F)cs2)c(-c2cnc3c(c2)c(=O)c(C(=O)O)cn3CCN2CCOCC2)cn1 [Example 56]
101

Moving on to CCNC(=O)Nc1cc(-c2nc(-c3cnn(C)c3)cs2)c(-c2cc3c(=O)c(C(=O)O)cn(C4CC4)c3cn2)cn1 [Example 75]
108

CCNC(=O)Nc1cc(-c2nc(C(F)(F)F)cs2)c(-c2cc3c(=O)c(C(=O)O)cn([C@@H]4CCCN(CCN5CCOCC5)C4)c3cn2)cn1 [Example 49] , same question.
98

And for CCNC(=O)Nc1cc(-c2nc(C(F)(F)F)cs2)c(-c2cnc3c(c2)c(=O)c(C(=O)O)cn3C2CC2)cn1 [Example 9] ?
96

The record that follows has no inhibition at 1 µM shown yet.
# input compound: CCNC(=O)Nc1cc(-c2nc(C(F)(F)F)cs2)c(-c2cc3c(=O)c(C(=O)O)cn(CCN4CCN(C)CC4)c3nc2N2CC[C@@H](CN)C2)cn1 [Example 60] ; wanted: its inhibition at 1 µM
101
